molecular target: Transcriptional enhancer factor TEF-3 (Homo sapiens, UniProt Q15561); assay: Inhibition of FITC-labeled palmitate tracer binding to N-terminal His6-tagged human TEAD4 (217 to 434 residues) expressed in Escherichia coli BL21-CodonPlus (DE3)-RIPL cells preincubated for 10 mins followed by FITC-labeled palmitate tracer addition and measured after 1 hr by fluorescence assay
Sequence (Q15561 whole entry, the tested form may be a part): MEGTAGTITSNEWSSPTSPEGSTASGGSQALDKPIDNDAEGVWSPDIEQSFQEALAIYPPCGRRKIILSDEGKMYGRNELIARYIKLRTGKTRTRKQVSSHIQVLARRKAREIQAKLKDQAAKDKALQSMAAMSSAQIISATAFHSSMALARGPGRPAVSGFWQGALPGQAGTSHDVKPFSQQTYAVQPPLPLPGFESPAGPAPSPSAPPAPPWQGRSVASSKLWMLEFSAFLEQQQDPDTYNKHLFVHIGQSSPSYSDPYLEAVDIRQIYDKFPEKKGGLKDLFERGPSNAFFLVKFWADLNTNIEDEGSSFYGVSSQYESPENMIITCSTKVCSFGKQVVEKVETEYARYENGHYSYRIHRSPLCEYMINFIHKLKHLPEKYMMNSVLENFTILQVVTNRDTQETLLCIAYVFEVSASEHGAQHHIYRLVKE
readout type: IC50 (µM)
A number alone suffices; assume µM.

Solved entries (count: 5):
* Cc1ccc(C(Nc2ccccc2)c2oc(CO)cc(=O)c2O)cc1 (stereo unspecified) | 0.2
* O=c1cc(CO)oc(C(Nc2cccc(F)c2)c2ccccc2)c1O (stereo unspecified) | 0.2
* O=c1cc(CO)oc(C(Nc2ccccn2)c2ccccn2)c1O (stereo unspecified) | 16
* O=C(O)c1cccnc1Nc1cccc(C(F)(F)F)c1 | 5.9
* O=c1cc(CO)oc(C(Nc2ccccc2)c2ccccc2F)c1O (stereo unspecified) | 0.1

Consider the record given below.
Which value of IC50 has been reported for O=C(CCl)c1ccccc1Nc1cccc(C(F)(F)F)c1 in the records?
14.1
